System: P. falciparum stage V gametocytes
Set-up: BacTiter-Glo ATP luminescence viability of purified stage V gametocytes in 384-well plates, per cent inhibition versus DMSO
Details: 48 h, 5 µM; inhibitor
Hit rate of the full screen: of about 13,000 compounds, about 3,200 (25%) showed an effect of 50% or more. The list shows a part of the results.
Below, each of the compounds is paired with its reported % Inhibition value.
readout name: % Inhibition (%)

>  <compound>
CCNc1cc(C(=O)N[C@@H](Cc2ccccc2)[C@H](O)CN[C@H](C)c2ccccc2)cc(N2CCCC2=O)c1 [TCMDC-138822]

>  <readout name>
% Inhibition

>  <uom>
%

>  <experimental result>
64.41

$$$$
>  <compound>
CCCc1ccc(N2C(N)=NC(N)=NC2(C)C)cc1 [TCMDC-137706]

>  <readout name>
% Inhibition

>  <uom>
%

>  <experimental result>
5.239

$$$$
>  <compound>
CNC(=O)CNC(=O)COc1cccc2ccccc12 [TCMDC-131646]

>  <readout name>
% Inhibition

>  <uom>
%

>  <experimental result>
8.257

$$$$
>  <compound>
CCC(NC[C@@H](O)[C@H](Cc1ccccc1)NC(=O)c1cc(C2CCCC2)cc(N2CCCC2=O)c1)c1cccc(Cl)c1 (some centres unmarked) [TCMDC-135265]

>  <readout name>
% Inhibition

>  <uom>
%

>  <experimental result>
4.239

$$$$
>  <compound>
COc1ccccc1Cn1ccnc1SCC(=O)Nc1cc(C(F)(F)F)ccc1Cl [TCMDC-124736]

>  <readout name>
% Inhibition

>  <uom>
%

>  <experimental result>
-16.43

$$$$

Recorded values, source paper PMC4552634.
